Values compiled from patent US20090203145A1.

Overview of reported Signal Response in Microbiological Method: Response, % across a group of compounds:
test system: specific bacteria; assay: Microbiological method for B6 (Official Method 961.15, Modified): signal response of similar molecules; format: cell-based; conditions: microbiological B6 assay; B6 (pyridoxine) given as 100
Numbers only here, please. The scale is %.

Record excerpt, results attached:
Cc1ncc(CO)c(C=O)c1O; 112
Cc1ncc(CO)c(CO)c1O; 100
Cc1ncc(CO)c(CN)c1O; 84

Now consider the entry below.
[ask] Look up and report measured Signal Response in Microbiological Method: Response, % for this entry: Cc1ncc(CO)c(C(=O)O)c1O
[reply] 0
